experiment: Monitoring of the plasma concentration of the main oligosaccharides of a VLMWH in human volunteers (plasma filtration + anion-exchange HPLC); assay type: in vivo; conditions: 4.5 h after administration of VLMWH (2500 Da) 1.4 mg/kg
test readout: plasma concentration (µM)
Give bare numbers, in µM.

State the recorded plasma concentration for every item in the following list.
1. O=C(O)C1=CC(O)C(OS(=O)(=O)O)C(OC2C(COS(=O)(=O)O)OC(OC3C(C(=O)O)OC(OC4C(COS(=O)(=O)O)OC(O)C(NS(=O)(=O)O)C4O)C(OS(=O)(=O)O)C3O)C(NS(=O)(=O)O)C2O)O1 (centres unmarked)
2. O=C(O)C1=CC(O)C(OS(=O)(=O)O)C(OC2C(COS(=O)(=O)O)OC(O)C(NS(=O)(=O)O)C2O)O1 (centres unmarked)
3. CC(=O)NC1C(OC2C(C(=O)O)OC(OC3C(COS(=O)(=O)O)OC(OC4C(C(=O)O)OC(OC5C(COS(=O)(=O)O)OC(OC6C(C(=O)O)OC(OC7C(COS(=O)(=O)O)OC(O)C(NS(=O)(=O)O)C7O)C(OS(=O)(=O)O)C6O)C(NS(=O)(=O)O)C5O)C(OS(=O)(=O)O)C4O)C(NS(=O)(=O)O)C3OS(=O)(=O)O)C(O)C2O)OC(COS(=O)(=O)O)C(OC2OC(C(=O)O)=CC(O)C2O)C1O (centres unmarked)
4. O=C(O)C1=CC(O)C(OS(=O)(=O)O)C(OC2C(COS(=O)(=O)O)OC(OC3C(C(=O)O)OC(OC4C(COS(=O)(=O)O)OC(OC5C(C(=O)O)OC(OC6C(COS(=O)(=O)O)OC(O)C(NS(=O)(=O)O)C6O)C(OS(=O)(=O)O)C5O)C(NS(=O)(=O)O)C4O)C(OS(=O)(=O)O)C3O)C(NS(=O)(=O)O)C2O)O1 (centres unmarked)

stdout:
1: 0.06; 2: 0.06; 3: 0.04; 4: 0.01

stdin: What value of plasma concentration has been reported for the following molecule? CC(=O)NC1C(OC2C(C(=O)O)OC(OC3C(COS(=O)(=O)O)OC(OC4C(C(=O)O)OC(OC5C(COS(=O)(=O)O)OC(O)C(NS(=O)(=O)O)C5O)C(OS(=O)(=O)O)C4O)C(NS(=O)(=O)O)C3OS(=O)(=O)O)C(O)C2O)OC(COS(=O)(=O)O)C(OC2OC(C(=O)O)=CC(O)C2O)C1O (centres unmarked)
stdout: 0.10
